- Tested on: CEM (human lymphocyte) cells
- Test Method Notes: Cytostatic activity: inhibition of tumor cell proliferation
- Assay type: cell-based
- Recorded Conditions: Homo sapiens, CCRF-CEM, read-out: IC50 (50% inhibitory concentration)
Property Measured: pIC50
Quick note: pIC50 means taking -log10 of the concentration in moles per liter.

Req: Which value of pIC50 has been reported for "S=C(NN=Cc1ccc(Cl)s1)Nc1ccccc1" in the records?
Resp: 5.00
